All figures here come from patent US20260109721A1.

Entries annotated with measured Cell Viability % (Average metabolic rate over all doses, Resazurin)
Tested on: HeLa cells
Protocol notes: Cell viability assessment with resazurin assay (Method A)
Assay type: cell-based
Setup conditions: human
Reply numerically in %, unit not repeated.

Worked cases, answers included:
CCCCCCCC/C=C\CCCCCCCCOC(CCCCCCC/C=C\CCCCCCCC)O[Si](C)(C)OCCCCCCN(CCO)CCO (stereo not drawn)    89
CCCCC/C=C\C/C=C\CCCCCCCCOC(CCCCCCC/C=C\C/C=C\CCCCC)O[Si](C)(C)OCCCCCCN(CCO)CCN(CCO)CCCCCCO[Si](C)(C)OC(CCCCCCC/C=C\C/C=C\CCCCC)OCCCCCCCC/C=C\C/C=C\CCCCC (stereo not drawn)    85

Documented Cell Viability % (Average metabolic rate over all doses, Resazurin) of CCCCC/C=C\C/C=C\CCCCCCCC(OCCCCCCCC/C=C\CCCCCCCC)O[Si](C)(C)OCCCCCCN(CCO)CCO (stereo not drawn) : 96
